Target: human orexin 2 receptors (Homo sapiens (Human), UniProt O43614)
Sequence (O43614 whole entry): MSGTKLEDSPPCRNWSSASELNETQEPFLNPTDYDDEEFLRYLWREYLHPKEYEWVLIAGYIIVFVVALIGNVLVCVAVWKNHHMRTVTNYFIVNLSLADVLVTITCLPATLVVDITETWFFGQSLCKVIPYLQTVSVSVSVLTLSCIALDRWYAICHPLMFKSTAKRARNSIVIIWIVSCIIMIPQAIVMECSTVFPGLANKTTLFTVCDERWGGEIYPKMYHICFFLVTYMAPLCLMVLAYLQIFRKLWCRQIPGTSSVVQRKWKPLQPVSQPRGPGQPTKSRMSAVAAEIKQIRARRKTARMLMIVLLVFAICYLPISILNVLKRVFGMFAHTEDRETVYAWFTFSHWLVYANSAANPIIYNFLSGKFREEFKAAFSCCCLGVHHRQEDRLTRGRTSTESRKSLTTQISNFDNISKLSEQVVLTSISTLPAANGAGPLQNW
Experiment: Radioligand Binding Assay II ([3H]-SB649868 competition, cell membranes)
Settings: read-out: binding II hOx2R Kd

MOLECULE	Kd [nM]
Cc1ccc2c(n1)CC[C@@H]2NC(=O)COc1cc(C(F)F)c2c(C3CC3)nn(C)c2n1	75
Cc1ccc([C@H](C)NC(=O)COc2cc(C)c3c(-c4ncccc4F)nn(C)c3n2)cc1	22
COc1cc2c(cc1OC)C(NC(=O)COc1cc(C)c3c(C4CC4)nn(C)c3n1)CC2 (centres unmarked)	65
COc1ccc([C@H](C)NC(=O)COc2cc(C)c3c(-c4ccoc4C)nn(C)c3n2)cc1	188
COc1ccccc1-c1nn(C)c2nc(OCC(=O)N[C@@H](C)c3ccc(C)cc3)ccc12	150
Cc1ccc([C@H](C)NC(=O)COc2ccc3c(C(C)(C)C)nn(C)c3n2)cc1	164
Cc1ccc2c(n1)CC[C@@H]2NC(=O)COc1cc(C)c2c(C3CC3)nn(C)c2n1	42
Cc1cc(-c2nn(C)c3nc(OCC(=O)NC(C)c4c(C)nn(C)c4C)cc(C)c23)c(C)o1 (centres unmarked)	126

---

Target: human orexin 2 receptors (Homo sapiens (Human), UniProt O43614)
Assay: Radioligand Binding Assay II ([3H]-SB649868 competition, cell membranes)
Conditions: read-out: binding II hOx2R Kd
pKd: −log10 of the molar value.
Output class 1 for pKd not less than 7; output class 0 otherwise.

COMPOUND	GROUP
Cc1ccc([C@H](C)NC(=O)COc2cc(C)c3c(-c4ccc(C)cn4)nn(C)c3n2)cc1	class 1
Cc1ccc([C@H](C)NC(=O)COc2cc(C(F)(F)F)c3c(C4CC4)nn(C)c3n2)cc1	class 1
Cc1ccc2c(c1)CC[C@@H]2NC(=O)COc1cc(C)c2c(C3CC3)nn(C)c2n1	class 1
COc1ccc([C@H](C)NC(=O)COc2cc(C(F)F)c3c(-c4ccccc4)nn(C)c3n2)cc1	class 1
Cc1ccc2c(c1)CCC2NC(=O)COc1cc(C)c2c(C3CC3)nn(C)c2n1 (stereo not shown)	class 0
Cc1ccc([C@H](C)NC(=O)COc2cc(C)c3c(-c4cc(C)oc4C)nn(C)c3n2)cc1	class 0
Cc1ccc([C@H](C)NC(=O)COc2cc(C(F)F)c3c(-c4ccccc4)nn(C)c3n2)cc1	class 1
Cc1ccc([C@H](C)NC(=O)COc2cc(C)c3c(-c4nccs4)nn(C)c3n2)cc1	class 1
COc1ccc2c(c1)CC[C@@H]2NC(=O)COc1cc(C(F)(F)F)c2c(C3CC3)nn(C)c2n1	class 1
Cc1ccc([C@H](C)NC(=O)COc2cc(C)c3c(-c4ncc(C)s4)nn(C)c3n2)cc1	class 1
Cc1ccc([C@H](C)NC(=O)COc2cc(C)c3c(-c4cnccn4)nn(C)c3n2)cc1	class 1
Cc1cc(OCC(=O)NC(C)c2cnc3[nH]ccc3c2)nc2c1c(C1CC1)nn2C (stereo not shown)	class 0
COc1ccc([C@H](C)NC(=O)COc2cc(C)c3c(-c4cc(C)oc4C)nn(C)c3n2)cc1	class 0

---

Target: human orexin 1 receptors (Homo sapiens (Human), UniProt O43613)
Sequence (O43613 whole entry): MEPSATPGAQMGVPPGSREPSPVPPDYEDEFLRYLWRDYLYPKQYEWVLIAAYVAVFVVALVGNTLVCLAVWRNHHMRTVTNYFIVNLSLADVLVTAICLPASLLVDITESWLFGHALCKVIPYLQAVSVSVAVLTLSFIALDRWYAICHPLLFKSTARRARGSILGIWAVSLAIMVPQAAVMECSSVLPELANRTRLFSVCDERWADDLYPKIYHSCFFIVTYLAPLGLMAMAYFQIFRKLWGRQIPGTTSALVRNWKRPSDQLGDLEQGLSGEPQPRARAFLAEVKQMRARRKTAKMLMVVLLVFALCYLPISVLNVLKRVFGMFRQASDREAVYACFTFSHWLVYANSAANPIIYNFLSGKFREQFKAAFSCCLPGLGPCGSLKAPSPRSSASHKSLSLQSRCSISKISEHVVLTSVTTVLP
Assay: Radioligand Binding Assay II ([3H]-SB649868 competition, cell membranes)
Settings: read-out: binding II hOx1R Kd
pKd: −log10 of the molar value.
pKd values by entry
READOUT KIND: pKd

MOLECULE	RECORDED NUMBER
COc1nc(-c2nn(C)c3nc(OCC(=O)N[C@@H](C)c4ccc(C)cc4)cc(C)c23)cs1	7.82
Cc1ccc2c(n1)CC[C@@H]2NC(=O)COc1cc(C(F)F)c2c(C3CC3)nn(C)c2n1	7.21
COc1ccc([C@H](C)NC(=O)COc2cc(C(F)(F)F)c3c(-c4cc(C)oc4C)nn(C)c3n2)cc1	7.92
Cc1ccc([C@H](C)NC(=O)COc2cc(C)c3c(C4CC4)nn(C)c3n2)cc1	7.74
Cc1ccc([C@H](C)NC(=O)COc2cc(C)c3c(-c4nc(C)cs4)nn(C)c3n2)cc1	8.40
COc1ccc(C(C)NC(=O)COc2cc(C(F)F)c3c(-c4ccccc4)nn(C)c3n2)cn1 (stereo not shown)	7.25
COc1ccc2c(c1)CC[C@@H]2NC(=O)COc1cc(C)c2c(C3CC3)nn(C)c2n1	7.17
